Biological target: Serine/threonine-protein kinase 10 (Homo sapiens)
Conditions: at 10 µM
Listed here are compounds together with their documented residual activity.
Your answer is read as %, so omit the unit and give the number.

>>> df
                         structure_notation  attribute_measured  unit_annotation  recorded_measurement
0  COc1ccc(CNc2nc(N(CCO)CCO)nc3c2ncn3C(C)C)cc1   residual activity                %                    88

GET residual activity | system: Serine/threonine-protein kinase 10 (Homo sapiens) | item: O=Nc1c(-c2c(O)[nH]c3ccccc23)[nH]c2ccccc12
71

* * *

Molecular target: Serine/threonine-protein kinase Nek3 (Homo sapiens)
Conditions: at 10 µM
Description: Millipore: Percentage of residual kinase activity of NEK3 at 10uM relative to control. Control inhibitor: Phosphoric acid* at 0.3uM. Buffer: 8 mM MOPS pH 7.0, 0.2 mM EDTA
Listed here are compounds together with their documented residual activity.
Your answer is read as %, so omit the unit and give the number.

These recorded examples may help you get a feel for the data.
>>> print(df.to_string())
                         structure_notation  unit_annotation  recorded_measurement
0             COc1cc2ncc(-c3ccccc3)nc2cc1OC                %                    85
1            Cc1nc(-c2ccccc2)c(-c2ccncc2)o1                %                   114
2     CCC(=O)Nc1ccc2ncnc(Nc3cccc(Br)c3)c2c1                %                    98
3  O=C1Nc2ccc(Br)cc2/C1=C\c1cc2c([nH]1)CCCC2                %                    97
4      CN(C)c1ccc(/C=C2\C(=O)Nc3ccccc32)cc1                %                    75

Let's switch to this compound now.
Tell me its residual activity given Nc1cccc(-c2cc3c(Oc4cccc(O)c4)ncnc3[nH]2)c1 as the entry.
23
